For each of the compounds below, state its melting point.
Expressed in °C, but write only the number.

Entry COc1ccc(S(=O)(=O)Nc2nc(-c3cccc([N+](=O)[O-])c3)c(CN3CCSCC3)s2)cc1OC — recorded melting point = 136

Measured melting point, COc1ccc(S(=O)(=O)Nc2nc(-c3cccc([N+](=O)[O-])c3)c(CN(C)C)s2)cc1OC : 203

* * *

Tested on: kynurenine-3-monooxygenase
Experiment: KMO inhibition, radiometric assay (Erickson et al.)
Assay type: biochemical
Conditions: 10 μM compound
ASSAY_READOUT: % inhibition at 10 μM (%)
Just the number in %, nothing appended.

// % inhibition at 10 μM lookup, compound = COc1ccc(S(=O)(=O)N(C)c2nc(-c3cccc([N+](=O)[O-])c3)cs2)cc1OC , result: 52

Briefly, % inhibition at 10 μM measured for CCOC(=O)N(c1nc(-c2cccc([N+](=O)[O-])c2)cs1)S(=O)(=O)c1ccc(OC)c(OC)c1 : 84

Lookup result for CCOC(=O)CN(c1nc(-c2cccc([N+](=O)[O-])c2)cs1)S(=O)(=O)c1ccc(OC)c(OC)c1 ; measured % inhibition at 10 μM: 81

compound CCN(CC)Cc1sc(NS(=O)(=O)c2ccc(OC)c(OC)c2)nc1-c1cccc([N+](=O)[O-])c1 , % inhibition at 10 μM observed: 74

Entry under test: COC(=O)N(c1nc(-c2cccc([N+](=O)[O-])c2)cs1)S(=O)(=O)c1ccc(OC)c(OC)c1 . Its % inhibition at 10 μM was 85

GET /value?item= COc1ccc(S(=O)(=O)Nc2nc(-c3cccc([N+](=O)[O-])c3)c(CN3CCOCC3)s2)cc1OC &field=% inhibition at 10 μM returns 64

For COc1ccc(S(=O)(=O)Nc2nc(-c3cccc([N+](=O)[O-])c3)c(CN(C)C)s2)cc1OC the compound record lists % inhibition at 10 μM as 58

Short answer for CCCN(C)Cc1sc(NS(=O)(=O)c2ccc(OC)c(OC)c2)nc1-c1cccc([N+](=O)[O-])c1 : % inhibition at 10 μM was 73

Data point: COc1ccc(S(=O)(=O)Nc2nc(-c3cccc([N+](=O)[O-])c3)c(CN3CCCCC3)s2)cc1OC ; % inhibition at 10 μM = 24

Just for reference, patent US8710237B2 is where these values come from.
